tested on: Escherichia coli TOP10; test: shrunken log2 fold change of peptide-encoding DNA abundance (4.5 h post-induction vs induction); higher = less antimicrobial activity (less host growth inhibition); settings: time post-induction: 4.5 h; library: site-saturation at positions 5, 18, 19, 20
Assign shrunken log2 fold change to each entry below.
Answer as a number with no unit attached.

# input Query: shrunken log2 fold change; subject: RRIRQRPPRLPRPRPRPRNGPRP
# output -0.0342

# input Data request, read-out shrunken log2 fold change, for RRIRLRPPRLPRPRPRPWTDPRP
# output -0.279

# input Tell me the measured shrunken log2 fold change of RRIRCRPPRLPRPRPRPHDFPRP , please.
# output -0.0215

# input Give the measured shrunken log2 fold change of RRIRNRPPRLPRPRPRPWMIPRP .
# output -0.252

# input Using the record for RRIRPRPPRLPRPRPRPALEPRP , report its shrunken log2 fold change.
# output 0.313

# input # query: shrunken log2 fold change of entry RRIRDRPPRLPRPRPRPKKTPRP
# output -0.0142

# input Would you mind telling me what shrunken log2 fold change value was observed for RRIRLRPPRLPRPRPRPCKDPRP ?
# output -0.194

# input Which shrunken log2 fold change is listed for RRIRNRPPRLPRPRPRPPLCPRP ?
# output 0.167

# input May I ask what shrunken log2 fold change has been recorded for RRIRGRPPRLPRPRPRPYPVPRP ?
# output 0.0121

# input Sample RRIRLRPPRLPRPRPRPETYPRP — what was its shrunken log2 fold change?
# output -0.215

# input // query shrunken log2 fold change value for entry RRIRERPPRLPRPRPRPHHCPRP
# output -0.0231

# input GET /values?readout=shrunken log2 fold change&item= RRIRCRPPRLPRPRPRPTIKPRP
# output -0.364

# input Please look up its shrunken log2 fold change: RRIRLRPPRLPRPRPRPENPPRP
# output -0.173

# input Returns the measured shrunken log2 fold change for the input sequence. Input: RRIRHRPPRLPRPRPRPFSKPRP
# output 0.0242

# input # get_value(readout='shrunken log2 fold change', item= RRIRVRPPRLPRPRPRPLGRPRP )
# output 0.267

# input What does the data say about its shrunken log2 fold change? Entry: RRIRIRPPRLPRPRPRPLTCPRP
# output -0.174

# input sequence: RRIRPRPPRLPRPRPRPSRTPRP ; wanted: its shrunken log2 fold change
# output 0.198

# input Would you kindly share the measured shrunken log2 fold change for RRIRSRPPRLPRPRPRPIAMPRP ?
# output -0.127

# input Need shrunken log2 fold change of RRIRWRPPRLPRPRPRPQEYPRP , thanks.
# output -0.0612

# input So what does the record say about shrunken log2 fold change for RRIRSRPPRLPRPRPRPRQTPRP ?
# output 0.0651

# input Quick one: shrunken log2 fold change of RRIRVRPPRLPRPRPRPMYLPRP ?
# output -0.0313

# input Request the reported shrunken log2 fold change associated with RRIRLRPPRLPRPRPRPALWPRP
# output 0.754

# input Given the entry RRIRARPPRLPRPRPRPGVAPRP , report its measured shrunken log2 fold change.
# output 1.05

# input Suppose we examine the sequence RRIRARPPRLPRPRPRPQPMPRP ; what shrunken log2 fold change value has been reported?
# output 0.229

# input Data request, read-out shrunken log2 fold change, for RRIRDRPPRLPRPRPRPQQLPRP
# output -0.0103

# input Name the recorded shrunken log2 fold change for RRIRHRPPRLPRPRPRPQVNPRP .
# output -0.273

# input Recorded shrunken log2 fold change of RRIRLRPPRLPRPRPRPGDHPRP , please.
# output -0.202

# input Any idea what its shrunken log2 fold change is? The sequence is RRIRERPPRLPRPRPRPRDQPRP
# output 0.424

# input I would be grateful if you could share the reported shrunken log2 fold change for RRIRIRPPRLPRPRPRPGPFPRP .
# output -0.239

# input Give the measured shrunken log2 fold change of RRIRQRPPRLPRPRPRPHMAPRP .
# output -0.0694

# input State the recorded shrunken log2 fold change for this entry: RRIRARPPRLPRPRPRPCNIPRP
# output -0.671

# input Query: shrunken log2 fold change; subject: RRIRDRPPRLPRPRPRPPAYPRP
# output -0.0668

====

system: Escherichia coli TOP10; assay: shrunken log2 fold change of peptide-encoding DNA abundance (4.5 h post-induction vs induction); higher = less antimicrobial activity (less host growth inhibition); details: time post-induction: 4.5 h; library: site-saturation at positions 5, 18, 19, 20
# shrunken log2 fold change binned as LOW: < -0.01; MID: ≥ -0.01 and < 0.1; HIGH: ≥ 0.1

# input Exam item: assign RRIRQRPPRLPRPRPRPNSYPRP to the correct category.
# output LOW

# input Which class is correct for the following sequence? RRIRGRPPRLPRPRPRPTPEPRP
# output HIGH

# input Note: place this sequence into its band. Item: RRIRLRPPRLPRPRPRPVSCPRP
# output MID

# input Place this sequence in its band: RRIRDRPPRLPRPRPRPFFEPRP
# output HIGH

# input Band assignment needed for RRIRMRPPRLPRPRPRPNADPRP please.
# output HIGH

# input For the record RRIRHRPPRLPRPRPRPNFTPRP , report the class its shrunken log2 fold change corresponds to.
# output LOW

# input Given RRIRTRPPRLPRPRPRPQSIPRP , name the class its shrunken log2 fold change places it in.
# output LOW

# input // bin(item) where item = RRIRSRPPRLPRPRPRPSWWPRP
# output MID

# input Where would RRIRFRPPRLPRPRPRPFRHPRP land among the classes by reported shrunken log2 fold change?
# output MID

# input GET /class?item= RRIRTRPPRLPRPRPRPQTSPRP
# output HIGH

# input Textbook exercise: identify the category of the sequence given here, RRIRQRPPRLPRPRPRPVDFPRP , according to its measured value.
# output MID

# input In plain terms, what class is RRIRYRPPRLPRPRPRPMNSPRP ?
# output LOW

# input Kindly identify the class of RRIRRRPPRLPRPRPRPPIRPRP .
# output HIGH

# input Input RRIRGRPPRLPRPRPRPTQPPRP ; output its category
# output HIGH

# input Exercise: read the entry RRIRKRPPRLPRPRPRPSDCPRP and state which class it falls under.
# output MID

# input Lab note: which band did RRIRHRPPRLPRPRPRPHWFPRP land in?
# output LOW

# input Which shrunken log2 fold change band matches RRIRWRPPRLPRPRPRPVHPPRP ?
# output LOW

# input // bin(item) where item = RRIRMRPPRLPRPRPRPNFVPRP
# output MID

# input Assign a bin to RRIRPRPPRLPRPRPRPMNLPRP
# output MID

# input Which class does RRIRPRPPRLPRPRPRPRKIPRP fall in?
# output LOW

# input // bin(item) where item = RRIRSRPPRLPRPRPRPKLAPRP
# output HIGH

# input Band assignment needed for RRIRNRPPRLPRPRPRPADCPRP please.
# output HIGH

# input Pick a category. Item: RRIRGRPPRLPRPRPRPLLTPRP
# output HIGH

# input Hey, which category is RRIRGRPPRLPRPRPRPMTLPRP in, do you know?
# output HIGH

# input Lab note: sort RRIRRRPPRLPRPRPRPINLPRP into the matching shrunken log2 fold change band.
# output MID

# input Class label required: RRIRVRPPRLPRPRPRPWHLPRP
# output LOW

# input Dear colleague, I would appreciate it if you could identify the bin for RRIRQRPPRLPRPRPRPLVCPRP and reply at your convenience.
# output MID

# input Place this sequence in its band: RRIRCRPPRLPRPRPRPHKDPRP
# output LOW

# input Exam item: assign RRIRWRPPRLPRPRPRPGATPRP to the correct category.
# output HIGH

# input Band of RRIRLRPPRLPRPRPRPDTMPRP ?
# output LOW

# input Band of RRIRVRPPRLPRPRPRPLCWPRP ?
# output MID

# input Textbook exercise: identify the category of the sequence given here, RRIRWRPPRLPRPRPRPYHSPRP , according to its measured value.
# output LOW

====

test system: Escherichia coli TOP10; assay: shrunken log2 fold change of peptide-encoding DNA abundance (4.5 h post-induction vs induction); higher = less antimicrobial activity (less host growth inhibition); details: time post-induction: 4.5 h; library: site-saturation at positions 5, 18, 19, 20
endpoint name: shrunken log2 fold change

# input shrunken log2 fold change of RRIRARPPRLPRPRPRPMERPRP on Escherichia coli TOP10?
# output 0.0157

# input Item: RRIRFRPPRLPRPRPRPIMAPRP Test system: Escherichia coli TOP10 Read-out: shrunken log2 fold change Value: ?
# output -0.0564

# input Look up shrunken log2 fold change with Escherichia coli TOP10 for this sequence: RRIRLRPPRLPRPRPRPFGWPRP
# output 0.0538

# input shrunken log2 fold change of RRIRERPPRLPRPRPRPIRVPRP on Escherichia coli TOP10?
# output -0.679

# input Missing value: shrunken log2 fold change, Escherichia coli TOP10, entry RRIRSRPPRLPRPRPRPVHWPRP . Fill in?
# output 0.138

# input Lab note: need shrunken log2 fold change with Escherichia coli TOP10 for entry RRIRRRPPRLPRPRPRPCERPRP , please look it up.
# output 0.137

# input Please state recorded shrunken log2 fold change (tested on Escherichia coli TOP10) of RRIRSRPPRLPRPRPRPLRQPRP
# output 0.364

# input Notebook entry, Escherichia coli TOP10 assay: shrunken log2 fold change of RRIRRRPPRLPRPRPRPNYGPRP = ?
# output 0.00704

# input Recall the recorded shrunken log2 fold change for RRIRQRPPRLPRPRPRPMYEPRP with Escherichia coli TOP10 and state it.
# output -0.01

# input Kindly state the measured shrunken log2 fold change obtained for RRIRGRPPRLPRPRPRPIYVPRP with Escherichia coli TOP10.
# output 1.23

# input Any idea what shrunken log2 fold change came out for RRIRFRPPRLPRPRPRPTKQPRP on Escherichia coli TOP10?
# output 0.0621

# input Lookup: shrunken log2 fold change / Escherichia coli TOP10 / RRIRMRPPRLPRPRPRPLPCPRP
# output 0.372

# input Enter reported shrunken log2 fold change observed with Escherichia coli TOP10 for RRIRTRPPRLPRPRPRPSGSPRP
# output 0.204

# input Form entry - test system: Escherichia coli TOP10; read-out: shrunken log2 fold change; sequence: RRIRLRPPRLPRPRPRPCCTPRP
# output -0.0665

# input Form field - read-out: shrunken log2 fold change; system: Escherichia coli TOP10; submitted item: RRIRNRPPRLPRPRPRPDVGPRP
# output -0.251

# input Please tell me: shrunken log2 fold change of RRIRVRPPRLPRPRPRPERQPRP , system Escherichia coli TOP10?
# output 0.514

# input Find the measured shrunken log2 fold change: item RRIRSRPPRLPRPRPRPNTAPRP , target or system Escherichia coli TOP10.
# output -0.0399

# input Request: shrunken log2 fold change, test system Escherichia coli TOP10, entry RRIRARPPRLPRPRPRPCFGPRP
# output 0.0532

# input Write down the reported shrunken log2 fold change of RRIRPRPPRLPRPRPRPKEKPRP , test system: Escherichia coli TOP10.
# output 0.264

# input Escherichia coli TOP10 / shrunken log2 fold change / RRIRTRPPRLPRPRPRPFETPRP : value?
# output -0.117

# input Recall the recorded shrunken log2 fold change for RRIRTRPPRLPRPRPRPRGDPRP with Escherichia coli TOP10 and state it.
# output 0.409

# input Which shrunken log2 fold change is reported with Escherichia coli TOP10 for this entry: RRIRERPPRLPRPRPRPMYGPRP ?
# output -0.739

# input Request - read-out shrunken log2 fold change | tested on Escherichia coli TOP10 | sequence RRIRTRPPRLPRPRPRPHYTPRP
# output -1.01

# input GET /values?readout=shrunken log2 fold change&system=Escherichia coli TOP10&item= RRIRQRPPRLPRPRPRPDPYPRP
# output 0.032

# input Form entry - test system: Escherichia coli TOP10; read-out: shrunken log2 fold change; sequence: RRIRMRPPRLPRPRPRPMIDPRP
# output -0.0842

# input Identify the measured shrunken log2 fold change of RRIRWRPPRLPRPRPRPMEAPRP for Escherichia coli TOP10.
# output 0.0987

# input Please provide the recorded shrunken log2 fold change for RRIRARPPRLPRPRPRPLVVPRP , tested on Escherichia coli TOP10.
# output 0.194

# input Can you look up shrunken log2 fold change on Escherichia coli TOP10 for RRIRPRPPRLPRPRPRPKFPPRP ?
# output 0.119

# input Which shrunken log2 fold change is reported with Escherichia coli TOP10 for this entry: RRIRGRPPRLPRPRPRPANTPRP ?
# output 0.152

# input Hello, I am looking for reported shrunken log2 fold change with Escherichia coli TOP10 for RRIRIRPPRLPRPRPRPMEEPRP . Could you help?
# output -0.00798

# input // lookup shrunken log2 fold change | system=Escherichia coli TOP10 | key= RRIRPRPPRLPRPRPRPTCSPRP;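 also: peptides expressed intracellularly from a pBAD plasmid library in pooled LB shake-flask culture, induced with 0.3% L-arabinose, DNA abundance read by NGS, three biological replicates, DESeq2 with apeglm shrinkage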
# output 0.265

# input For Escherichia coli TOP10, provide shrunken log2 fold change of RRIRNRPPRLPRPRPRPGSVPRP please.
# output -0.0436
